# target.under.test: NAD-dependent protein deacylase sirtuin-5, mitochondrial (Homo sapiens) (UniProt Q9NXA8)
# Sequence (Q9NXA8 whole entry, looked up): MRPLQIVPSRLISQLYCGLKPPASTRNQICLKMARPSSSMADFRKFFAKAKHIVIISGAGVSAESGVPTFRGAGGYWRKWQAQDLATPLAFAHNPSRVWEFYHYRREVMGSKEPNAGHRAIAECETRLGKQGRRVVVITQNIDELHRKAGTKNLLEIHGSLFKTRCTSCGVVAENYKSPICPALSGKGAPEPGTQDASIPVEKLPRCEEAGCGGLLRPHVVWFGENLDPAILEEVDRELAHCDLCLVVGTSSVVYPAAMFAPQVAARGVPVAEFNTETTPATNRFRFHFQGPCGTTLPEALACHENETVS
# measurement.description: blockers of sirtuin-5 deacylase activity – biochemical, fluorescence imaging, single point, set 5, primary screen (AID 652115)
# details: Purified SirT5, succinyl-peptide AMC, trypsin-coupled fluorescence; at 15 µM
Among all 330,000 compounds or so, about 3,800 (1.2%) were called active. Cut-off read from the data, not from the text of the source: active = inhibition above about 15%; inconclusive = no clear call, values can overlap the other calls; inactive = below that. Shown is part of a subset that was picked to be rich in actives.
Outcomes: active, inactive

structure.string	assigned.label
Cc1ccc(S(=O)(=O)N[C@@H]2CC[C@@H](CC(=O)O)O[C@@H]2CO)cc1	inactive
CN(c1ccccc1)S(=O)(=O)c1ccc(C(=O)NCCc2ccccc2)cc1	inactive
Cc1ccc(S(=O)(=O)N[C@H]2CC[C@@H](CC(=O)N3CCc4ccccc4C3)O[C@H]2CO)cc1	inactive
CN(C)S(=O)(=O)c1ccc(C(=O)NCCN=C2NS(=O)(=O)c3ccccc32)cc1	active
Cc1ccccc1C(=O)NCCN=C1NS(=O)(=O)c2ccccc21	inactive
